# Tested on: Staph. aureus 1756
# experimental.protocol: MIC, test tube series dilution test, Staph. aureus 1756
# Type: cell-based, Staphylococcus aureus
# measurement.conditions: Staph. aureus 1756; 24 hours, 37°C
reported.endpoint: MIC

[[record]]
compound = "CC1(C)S[C@@H]2[C@H](NC(=O)[C@H](NC(=O)c3ccc(NC(=O)c4cc(Cl)cc(Cl)c4)cc3)c3ccccc3)C(=O)N2[C@H]1C(=O)O [Example 20]"
value_reported = "~ 4 U/ml"

[[record]]
compound = "CC(C)(CN=[N+]=[N-])C(=O)Nc1ccc(C(=O)N[C@@H](C(=O)N[C@@H]2C(=O)N3[C@@H]2SC(C)(C)[C@@H]3C(=O)O)c2ccccc2)cc1 [Example 39]"
value_reported = "~ 64 U/ml"

[[record]]
compound = "CC1(C)S[C@@H]2[C@H](NC(=O)[C@H](NC(=O)c3cc(NC(=O)C4CC4)ccc3Cl)c3ccccc3)C(=O)N2[C@H]1C(=O)O [Example 53]"
value_reported = "32-64 U/ml"

[[record]]
compound = "CC1(C)S[C@@H]2[C@H](NC(=O)[C@H](NC(=O)c3cc(NC(=O)C4CCC4)ccc3Cl)c3ccccc3)C(=O)N2[C@H]1C(=O)O [Example 52]"
value_reported = "32-64 U/ml"

[[record]]
compound = "CC1(C)S[C@@H]2[C@H](NC(=O)[C@H](NC(=O)c3ccc(NC(=O)c4ccc([N+](=O)[O-])cc4)cc3)c3ccccc3)C(=O)N2[C@H]1C(=O)O [Example 28]"
value_reported = "~ 32 U/ml"


----------
Listed here are compounds together with their documented MIC.
# Test system: E. coli C 165
# experimental.protocol: MIC, test tube series dilution test, E. coli C 165
# Format: cell-based
# measurement.conditions: 24 hours, 37°C
reported.endpoint: MIC (U/ml)

[[record]]
compound = "CC1(C)S[C@@H]2[C@H](NC(=O)[C@H](NC(=O)c3ccc(NC=O)cc3)c3ccccc3)C(=O)N2[C@H]1C(=O)O"
target_or_test_system = "E. coli C 165"
value_reported = 32

[[record]]
compound = "CC1(C)S[C@@H]2[C@H](NC(=O)[C@H](NC(=O)c3ccc(NC(=O)c4ccc(N=[N+]=[N-])cc4)cc3)c3ccccc3)C(=O)N2[C@H]1C(=O)O"
target_or_test_system = "E. coli C 165"
value_reported = 4

[[record]]
compound = "CNC(=O)Nc1ccc(C(=O)N[C@@H](C(=O)N[C@@H]2C(=O)N3[C@@H]2SC(C)(C)[C@@H]3C(=O)O)c2ccccc2)cc1"
target_or_test_system = "E. coli C 165"
value_reported = 16

[[record]]
compound = "CC1(C)S[C@@H]2[C@H](NC(=O)[C@H](NC(=O)c3ccc(NC(=O)C4=CCCCC4)cc3)c3ccccc3)C(=O)N2[C@H]1C(=O)O"
target_or_test_system = "E. coli C 165"
value_reported = 8

[[record]]
compound = "COc1ccc(C(=O)Nc2ccc(C(=O)N[C@@H](C(=O)N[C@@H]3C(=O)N4[C@@H]3SC(C)(C)[C@@H]4C(=O)O)c3ccccc3)cc2)cc1"
target_or_test_system = "E. coli C 165"
value_reported = 8

[[record]]
compound = "CC(N=[N+]=[N-])C(=O)Nc1ccc(C(=O)N[C@@H](C(=O)N[C@@H]2C(=O)N3[C@@H]2SC(C)(C)[C@@H]3C(=O)O)c2ccccc2)cc1 (some centres unmarked)"
target_or_test_system = "E. coli C 165"
value_reported = 8

[[record]]
compound = "CNC(=S)Nc1ccc(C(=O)N[C@@H](C(=O)N[C@@H]2C(=O)N3[C@@H]2SC(C)(C)[C@@H]3C(=O)O)c2ccccc2)cc1"
target_or_test_system = "E. coli C 165"
value_reported = 32


----------
# Test system: E. coli 183/58
# experimental.protocol: MIC, test tube series dilution test, E. coli 183/58
# Assay type: cell-based
# measurement.conditions: 24 hours, 37°C
reported.endpoint: MIC (U/ml)

[[record]]
sample_smiles = "CC1(C)S[C@@H]2[C@H](NC(=O)[C@H](NC(=O)c3ccc(NC(=O)c4ccc(C(F)(F)F)cc4)cc3)c3ccccc3)C(=O)N2[C@H]1C(=O)O"
relation_qualifier = "<"
value_reported = 1

[[record]]
sample_smiles = "CC1(C)S[C@@H]2[C@H](NC(=O)[C@H](NC(=O)c3ccc(NC(=O)c4ccccc4)cc3)c3ccccc3)C(=O)N2[C@H]1C(=O)O"
relation_qualifier = "="
value_reported = 8

[[record]]
sample_smiles = "CC1(C)S[C@@H]2[C@H](NC(=O)[C@H](NC(=O)CNC(=O)c3ccc(NC(=O)C4CC4)cc3)c3ccccc3)C(=O)N2[C@H]1C(=O)O"
relation_qualifier = "="
value_reported = 64

[[record]]
sample_smiles = "CC1(C)S[C@@H]2[C@H](NC(=O)[C@H](NC(=O)c3ccc(NC=O)cc3)c3ccccc3)C(=O)N2[C@H]1C(=O)O"
relation_qualifier = "="
value_reported = 64

[[record]]
sample_smiles = "COc1cc(OC)cc(C(=O)Nc2ccc(C(=O)N[C@@H](C(=O)N[C@@H]3C(=O)N4[C@@H]3SC(C)(C)[C@@H]4C(=O)O)c3ccccc3)cc2)c1"
relation_qualifier = "="
value_reported = 8

[[record]]
sample_smiles = "CC1(C)S[C@@H]2[C@H](NC(=O)[C@H](NC(=O)CNC(=O)c3ccc(NC(=O)C4CCCC4)cc3)c3ccccc3)C(=O)N2[C@H]1C(=O)O"
relation_qualifier = "="
value_reported = 64

[[record]]
sample_smiles = "CC1(C)S[C@@H]2[C@H](NC(=O)[C@H](NC(=O)c3ccc(NC(=O)c4ccc(N)cc4)cc3)c3ccccc3)C(=O)N2[C@H]1C(=O)O"
relation_qualifier = "="
value_reported = 16

[[record]]
sample_smiles = "CC1(C)S[C@@H]2[C@H](NC(=O)[C@H](NC(=O)c3ccc(NC(=O)c4ccc(N=[N+]=[N-])cc4)cc3)c3ccccc3)C(=O)N2[C@H]1C(=O)O"
relation_qualifier = "<"
value_reported = 1

[[record]]
sample_smiles = "CC1(C)S[C@@H]2[C@H](NC(=O)[C@H](NC(=O)c3ccc(NC(=O)C4CCCC4)cc3)c3ccccc3)C(=O)N2[C@H]1C(=O)O"
relation_qualifier = "="
value_reported = 8

[[record]]
sample_smiles = "CC1(C)S[C@@H]2[C@H](NC(=O)[C@H](NC(=O)c3ccc(NC(=O)Nc4ccccc4)cc3)c3ccccc3)C(=O)N2[C@H]1C(=O)O"
relation_qualifier = "="
value_reported = 4

[[record]]
sample_smiles = "CC1(C)S[C@@H]2[C@H](NC(=O)[C@H](NC(=O)c3ccc(NC(N)=O)cc3)c3ccccc3)C(=O)N2[C@H]1C(=O)O"
relation_qualifier = "="
value_reported = 256

[[record]]
sample_smiles = "CC1(C)S[C@@H]2[C@H](NC(=O)[C@H](NC(=O)c3ccc(NC(=O)C4CC4)cc3)c3ccccc3)C(=O)N2[C@H]1C(=O)O"
relation_qualifier = "="
value_reported = 16

[[record]]
sample_smiles = "CC1(C)S[C@@H]2[C@H](NC(=O)[C@H](NC(=O)c3ccc(NC(=O)C4CCC=CCC4)cc3)c3ccccc3)C(=O)N2[C@H]1C(=O)O"
relation_qualifier = "="
value_reported = 16


----------
# System: Klebsiella K 10
# experimental.protocol: MIC, test tube series dilution test, Klebsiella K 10
# Assay type: cell-based
# measurement.conditions: 24 hours, 37°C
Listed here are compounds together with their documented MIC.
reported.endpoint: MIC

[[record]]
sample_smiles = "CC1(C)S[C@@H]2[C@H](NC(=O)[C@H](NC(=O)c3ccc(NC=O)c(NC=O)c3)c3ccccc3)C(=O)N2[C@H]1C(=O)O"
value_reported = "> 256 U/ml"

[[record]]
sample_smiles = "CC1(C)S[C@@H]2[C@H](NC(=O)[C@H](NC(=O)c3ccccc3NC(=O)C3CC3)c3ccccc3)C(=O)N2[C@H]1C(=O)O"
value_reported = "> 256 U/ml"

[[record]]
sample_smiles = "CC1(C)S[C@@H]2[C@H](NC(=O)[C@H](NC(=O)c3ccc(NC(=O)C4CCC=CCC4)cc3)c3ccccc3)C(=O)N2[C@H]1C(=O)O"
value_reported = "32 U/ml"


----------
Listed here are compounds together with their documented MIC.
# Test system: Psdm. aerug. F 41
# experimental.protocol: MIC, test tube series dilution test, Psdm. aerug. F 41
# Type: cell-based, Pseudomonas aeruginosa
# measurement.conditions: Psdm. aerug. F 41; 24 hours, 37°C
reported.endpoint: MIC

[[record]]
compound = "CC1(C)S[C@@H]2[C@H](NC(=O)[C@H](NC(=O)c3cc(NC(=O)C4CCC4)ccc3Cl)c3ccccc3)C(=O)N2[C@H]1C(=O)O"
reported_endpoint = "MIC"
value_reported = "128-256 U/ml"

[[record]]
compound = "CC1(C)S[C@@H]2[C@H](NC(=O)[C@H](NC(=O)c3ccccc3NC(=O)C3CC3)c3ccccc3)C(=O)N2[C@H]1C(=O)O"
reported_endpoint = "MIC"
value_reported = "< 256 U/ml"

[[record]]
compound = "CNC(=O)Nc1ccc(C(=O)N[C@@H](C(=O)N[C@@H]2C(=O)N3[C@@H]2SC(C)(C)[C@@H]3C(=O)O)c2ccccc2)cc1"
reported_endpoint = "MIC"
value_reported = "~ 64 U/ml"

[[record]]
compound = "CC1(C)S[C@@H]2[C@H](NC(=O)[C@H](N)c3ccccc3)C(=O)N2[C@H]1C(=O)O [Ampicillin, D(-)-α-aminobenzylpenicillin, reference compound]"
reported_endpoint = "MIC"
value_reported = "> 256 U/ml"

[[record]]
compound = "CC1(C)S[C@@H]2[C@H](NC(=O)[C@H](NC(=O)CSc3ccc(NC=O)cc3)c3ccccc3)C(=O)N2[C@H]1C(=O)O"
reported_endpoint = "MIC"
value_reported = "> 256 U/ml"

[[record]]
compound = "CC1(C)S[C@@H]2[C@H](NC(=O)[C@H](NC(=O)c3cc(NC(=O)C4CC4)ccc3Cl)c3ccccc3)C(=O)N2[C@H]1C(=O)O"
reported_endpoint = "MIC"
value_reported = "128-256 U/ml"

